- System: KB
- Test method notes: Cytotoxicity against human KB cells after 48 hrs by neutral red assay
- Format: cell-based
Residues, ends and D or L forms follow the SMILES beside them. *: point of attachment. NHBn = c1ccc(CN*)cc1
Value kind: Activity

Ask: Activity of N[C@@H](Cc1cnc(C23CC4CC(CC(C4)C2)C3)[nH]1)C(=O)N[C@@H](Cc1c[nH]c2ccccc12)C(=O)N[C@@H](Cc1cnc(C23CC4CC(CC(C4)C2)C3)[nH]1)C(=O)NCc1ccccc1 on KB?
Result: > 10 µg/mL

Ask: API: value(readout= Activity, system= KB, query= N[C@@H](Cc1cnc(C2CCCC2)[nH]1)C(=O)N[C@@H](Cc1c[nH]c2ccccc12)C(=O)N[C@@H](Cc1cnc(C2CCCC2)[nH]1)C(=O)NCc1ccccc1 )
Result: > 10 µg/mL

Ask: Observed Activity on KB for N[C@@H](Cc1cnc(C2CCCCC2)[nH]1)C(=O)N[C@@H](Cc1c[nH]c2ccccc12)C(=O)N[C@@H](Cc1cnc(C2CCCCC2)[nH]1)C(=O)NCc1ccccc1 , please.
Result: > 10 µg/mL

Ask: Record N[C@@H](Cc1cnc[nH]1)C(=O)N[C@@H](Cc1c[nH]c2ccccc12)C(=O)N[C@@H](Cc1cnc[nH]1)C(=O)NCc1ccccc1 (H-His-Trp-His-NHBn) : what is its Activity with KB?
Result: > 10 µg/mL

Ask: Entry CC(C)(C)c1ncc(C[C@H](NC(=O)[C@H](Cc2c[nH]c3ccccc23)NC(=O)[C@@H](N)Cc2cnc(C(C)(C)C)[nH]2)C(=O)NCc2ccccc2)[nH]1 , system KB: what Activity was measured?
Result: > 10 µg/mL

Ask: Query the reported Activity for KB; item: CC(C)c1ncc(C[C@H](NC(=O)OC(C)(C)C)C(=O)N[C@@H](Cc2c[nH]c3ccccc23)C(=O)N[C@@H](Cc2cnc(C(C)C)[nH]2)C(=O)NCc2ccccc2)[nH]1
Result: > 10 µg/mL

###

- Tested on: Vero
- Test method notes: Cytotoxicity against African green monkey Vero cells after 48 hrs by neutral red assay
- Type: cell-based
- Stated conditions: chlorocebus sabaeus
Value kind: Activity

Ask: Reported Activity for N[C@@H](Cc1cnc(C2CCCCC2)[nH]1)C(=O)N[C@@H](Cc1c[nH]c2ccccc12)C(=O)N[C@@H](Cc1cnc(C2CCCCC2)[nH]1)C(=O)NCc1ccccc1 : what is it?
Result: > 10 µg/mL

Ask: Requested read-out: Activity. Entry: C[C@@H]1[C@H](O)[C@@H](C)/C=C/C=C/C=C/C=C/C=C/C=C/C=C/[C@H](O[C@@H]2O[C@H](C)[C@@H](O)[C@H](N)[C@@H]2O)C[C@@H]2O[C@](O)(C[C@@H](O)C[C@@H](O)[C@H](O)CC[C@@H](O)C[C@@H](O)CC(=O)O[C@H]1C)C[C@H](O)[C@H]2C(=O)O
Result: > 10 µg/mL

Ask: # get_value(readout='Activity', item= CC(C)(C)c1ncc(C[C@H](NC(=O)[C@H](Cc2c[nH]c3ccccc23)NC(=O)[C@@H](N)Cc2cnc(C(C)(C)C)[nH]2)C(=O)NCc2ccccc2)[nH]1 )
Result: > 10 µg/mL

###

- Test system: SK-MEL
- Test method notes: Cytotoxicity against human SK-MEL cells after 48 hrs by neutral red assay
- Format: cell-based
Value kind: Activity

Ask: For the record N[C@@H](Cc1cnc(C2CCCC2)[nH]1)C(=O)N[C@@H](Cc1c[nH]c2ccccc12)C(=O)N[C@@H](Cc1cnc(C2CCCC2)[nH]1)C(=O)NCc1ccccc1 , what value of Activity is listed for SK-MEL?
Result: > 10 µg/mL

Ask: Kindly state the measured Activity obtained for CC(C)c1ncc(C[C@H](NC(=O)[C@H](Cc2c[nH]c3ccccc23)NC(=O)[C@@H](N)Cc2cnc(C(C)C)[nH]2)C(=O)NCc2ccccc2)[nH]1 with SK-MEL.
Result: > 10 µg/mL

Ask: Entry CC(C)(C)OC(=O)N[C@@H](Cc1cnc(C(C)(C)C)[nH]1)C(=O)N[C@@H](Cc1c[nH]c2ccccc12)C(=O)N[C@@H](Cc1cnc(C(C)(C)C)[nH]1)C(=O)NCc1ccccc1 , system SK-MEL: what Activity was measured?
Result: > 10 µg/mL
